The origin of these recorded values is patent US11084808B2.

# System: human blood
# Assay notes: In vitro anticoagulant effect on human blood (APTT, CT2)
# Format: biochemical
# Recorded conditions: Table 2; concentration of the compound corresponding to 2 times the APTT of the blank control; human plasma
Outcome measure: CT2 (compound concentration doubling APTT)

In [3]: df
Out[3]:
                                chem_smiles  experimental_target  test_value
0  COc1cn([C@H](Cc2ccccn2)C(=O)Nc2ccc(C(=O)O)cc2)c(=O)cc1-c1cc(Cl)ccc1C(C)=O          human blood   >10000 µM
1  COCC[C@H](C(=O)Nc1ccc2[nH]c(C(=O)O)cc2c1)n1cc(OC)c(-c2cc(Cl)ccc2C(C)=O)cc1=O          human blood   >10000 µM
2  [2H]C([2H])([2H])C(=O)c1ccc(Cl)cc1-c1cc(=O)n([C@H](Cc2ccccc2)C(=O)Nc2ccc(C(=O)O)cc2)cc1OC          human blood   >10000 µM

Could you now consider this next molecule?
Any idea what its CT2 (compound concentration doubling APTT) is? The molecule is [2H]C([2H])([2H])Oc1cn([C@H](Cc2ccccc2)C(=O)Nc2ccc(C(=O)O)cc2)c(=O)cc1-c1cc(Cl)ccc1C(C)=O
>10000 µM
